target: human STING (HAQ) (Homo sapiens, UniProt Q86WV6, G230A/H232R/R293Q); assay: Differential scanning fluorimetry (DSF), huSTING (HAQ); assay type: binding; settings: 2 μM protein, compound 100 μM; Tm with ligand minus Tm of protein alone (1% DMSO); read-out: DSF huSTING (HAQ) ΔTm (° C.)
Sequence (Q86WV6 whole entry G230A/H232R/R293Q, looked up): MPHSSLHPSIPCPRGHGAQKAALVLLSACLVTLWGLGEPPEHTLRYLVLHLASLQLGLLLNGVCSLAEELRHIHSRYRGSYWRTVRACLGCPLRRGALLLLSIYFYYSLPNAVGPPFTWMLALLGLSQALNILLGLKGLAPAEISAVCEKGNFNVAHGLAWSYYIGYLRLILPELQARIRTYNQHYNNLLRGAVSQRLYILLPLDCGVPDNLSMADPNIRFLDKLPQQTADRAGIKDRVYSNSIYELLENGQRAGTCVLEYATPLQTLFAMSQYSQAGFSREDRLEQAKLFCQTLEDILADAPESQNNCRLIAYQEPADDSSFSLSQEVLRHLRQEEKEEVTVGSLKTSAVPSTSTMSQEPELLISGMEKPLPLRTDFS
MEASUREMENT_LABEL: ΔTm at 100 µM (°C)

Example molecules with recorded ΔTm at 100 µM:
[[record]]
smiles_input = "COc1c(C(N)=O)ccc2c1nc(-c1ccc(Br)cc1C(=O)O)n2CCn1c(-c2ccc(Br)cc2C(=O)O)nc2c(OC)c(C(N)=O)ccc21"
observed_value = 9.15

[[record]]
smiles_input = "COc1c(C(N)=O)ccc2c1nc(-c1cc(Cl)ccc1C(=O)O)n2CCn1c(-c2cc(Cl)ccc2C(=O)O)nc2c(OC)c(C(N)=O)ccc21"
observed_value = 5.88


(1) COc1c(C(N)=O)ccc2c1nc(-c1cccc(Br)c1C(=O)O)n2CCn1c(-c2cccc(Br)c2C(=O)O)nc2c(OC)c(C(N)=O)ccc21
(2) COc1c(C(N)=O)ccc2c1nc(-c1cccc(Cl)c1-c1nn[nH]n1)n2CCn1c(-c2cccc(Cl)c2-c2nn[nH]n2)nc2c(OC)c(C(N)=O)ccc21
Between the two listed entries 1 and 2 , which has its ΔTm at 100 µM at the higher number? // caller expects the label of the chosen entry
1

(I) COc1c(C(N)=O)ccc2c1nc(-c1ccccc1-c1nn[nH]n1)n2CCn1c(-c2ccccc2-c2nn[nH]n2)nc2c(OC)c(C(N)=O)ccc21
(II) COc1c(C(N)=O)ccc2c1nc(-c1ccc(Cl)cc1C(=O)O)n2C/C=C/Cn1c(-c2ccc(Cl)cc2C(=O)O)nc2c(OC)c(C(N)=O)ccc21
# compare ΔTm at 100 µM for I vs II ; return the one with the smaller value Output the label that corresponds to your choice.
II

---

molecular target: human STING (WT) (Homo sapiens (Human), UniProt Q86WV6, H232R); assay: Differential scanning fluorimetry (DSF), huSTING (WT); assay type: binding; conditions: 2 μM protein, compound 100 μM; Tm with ligand minus Tm of protein alone (1% DMSO); read-out: DSF huSTING (WT) ΔTm (° C.)
Sequence (Q86WV6 other isoform, or with tags, fused parts or gaps, stated change not applied): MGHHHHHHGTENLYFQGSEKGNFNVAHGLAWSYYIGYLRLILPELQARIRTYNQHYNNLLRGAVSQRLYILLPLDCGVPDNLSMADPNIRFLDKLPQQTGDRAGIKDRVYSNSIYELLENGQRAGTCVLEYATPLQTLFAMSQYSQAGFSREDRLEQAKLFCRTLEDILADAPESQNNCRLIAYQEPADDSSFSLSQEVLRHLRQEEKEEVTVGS
MEASUREMENT_LABEL: ΔTm at 100 µM (°C)

Below are worked cases with known answers.
[[record]]
compound = "NC(=O)c1ccc2c(c1)nc(-c1ccc(Cl)cc1C(=O)O)n2CCn1c(-c2ccc(Cl)cc2C(=O)O)nc2cc(C(N)=O)ccc21 [Example 39]"
measurement_label = "ΔTm at 100 µM"
unit_of_measure = "°C"
observed_value = -4.35

[[record]]
compound = "COc1c(C(N)=O)ccc2c1nc(-c1ccc(Cl)cc1C(=O)O)n2CCCn1c(-c2ccc(Cl)cc2C(=O)O)nc2c(OC)c(C(N)=O)ccc21 [Example 35]"
measurement_label = "ΔTm at 100 µM"
unit_of_measure = "°C"
observed_value = -2.51

[[record]]
compound = "COc1c(C(N)=O)ccc2c1nc(-c1ccccc1-c1nn[nH]n1)n2CCn1c(-c2ccccc2-c2nn[nH]n2)nc2c(OC)c(C(N)=O)ccc21 [Example 6]"
measurement_label = "ΔTm at 100 µM"
unit_of_measure = "°C"
observed_value = 0.94


(P) COc1c(C(N)=O)ccc2c1nc(-c1c(Cl)cccc1C(=O)O)n2CCn1c(-c2c(Cl)cccc2C(=O)O)nc2c(OC)c(C(N)=O)ccc21 (racemic) [Example 22]
(Q) COc1c(C(N)=O)ccc2c1nc(-c1cc(F)ccc1C(=O)O)n2CCn1c(-c2cc(F)ccc2C(=O)O)nc2c(OC)c(C(N)=O)ccc21 [Example 28]
(R) COc1c(C(N)=O)ccc2c1nc(-c1c(F)cc(Cl)cc1C(=O)O)n2CCn1c(-c2c(F)cc(Cl)cc2C(=O)O)nc2c(OC)c(C(N)=O)ccc21 [Example 11]
Order the records, beginning with the lowest ΔTm at 100 µM and ending with the highest. Please write the labels in the order that was asked for.
Q, R, P
(Q: -6.6 °C, R: 10.6 °C, P: 17 °C)

(1) COc1c(C(N)=O)ccc2c1nc(-c1c(F)cc(Cl)cc1-c1n[nH]c(=O)o1)n2CCn1c(-c2c(F)cc(Cl)cc2-c2n[nH]c(=O)o2)nc2c(OC)c(C(N)=O)ccc21 [Example 50]
(2) COc1c(C(N)=O)ccc2c1nc(-c1cccc(Cl)c1-c1nn[nH]n1)n2CCn1c(-c2cccc(Cl)c2-c2nn[nH]n2)nc2c(OC)c(C(N)=O)ccc21 [Example 40]
(3) COc1c(C(N)=O)ccc2c1nc(-c1ccc(Cl)c(Cl)c1-c1nn[nH]n1)n2CCn1c(-c2ccc(Cl)c(Cl)c2-c2nn[nH]n2)nc2c(OC)c(C(N)=O)ccc21 [Example 37]
In this exercise, place the 3 compounds in ascending sequence of their recorded ΔTm at 100 µM. Your reply should list the labels following the order given in the request.
2, 3, 1
(2: -7.45 °C, 3: -0.24 °C, 1: 12.5 °C)

(A) COc1c(C(N)=O)ccc2c1nc(-c1ccc(Cl)cc1C(=O)O)n2C/C=C/Cn1c(-c2ccc(Cl)cc2C(=O)O)nc2c(OC)c(C(N)=O)ccc21 [Example 34]
(B) COc1c(C(N)=O)ccc2c1nc(-c1c(F)cc(F)cc1-c1n[nH]c(=O)o1)n2CCn1c(-c2c(F)cc(F)cc2-c2n[nH]c(=O)o2)nc2c(OC)c(C(N)=O)ccc21 [Example 44]
From the items above, decide which of A and B has the lower ΔTm at 100 µM reading. Answer by quoting the chosen item's label.
A
